Ref: ChEMBL document CHEMBL5226372

# System: C-33-A
# Assay name: Antiproliferative activity against HPV-negative human C-33-A cells assessed as inhibition of cell growth incubated for 48 hrs by WST-1 assay
# Assay type: functional, cell-based
Please respond with reported EC50 for every item in the list.
Reply with just the number (in µM).

Requested read-out: EC50. Entry: COc1cc(C)c(O)c2c1C=CC(C)(CC/C=C(\C)CCCC(C)(C)OC(C)=O)O2 (stereo not given)
0.04

Bench note: what EC50 did COc1cc(C)c(O)c2c1C=CC(C)(CC/C=C(\C)CCCC(C)(C)O)O2 (stereo not given) show?
38

// returns reported EC50 for input CC(C)=CCC/C(C)=C/CC/C(C)=C/Cc1c(O)c(O)c(C)c(O)c1C=O
14

Reported EC50, molecule CC(=O)Oc1cc(C)c(O)c2c1C=CC(C)(CC/C=C(\C)CCC=C(C)C)O2 (stereo not given) : ____
14

Which EC50 value belongs to CC(C)=CCC/C(C)=C/CCC1(C)C=Cc2c(C=O)c(O)c(C)c(O)c2O1 (stereo not given) ?
58
